# cAMP EC50 values compiled below
Molecular target: human glucagon-like peptide-1 (GLP-1) receptor (human, UniProt P43220 24-463)
Assay: cell-based or functional assay
Reply numerically in nM, unit not repeated.

Exercise: I would be grateful if you could share the reported cAMP EC50 for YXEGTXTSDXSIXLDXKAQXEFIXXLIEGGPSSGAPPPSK (Aib2, αMeF(2F)6, 4Pal10, αMeL13, Orn16, K17(Z), Aib20, D-Glu24, αMeY25, K40(Z), C-terminal NH2; Z = AEEA-(γ-Glu)-(4-(4-tert-butylphenyl)butanoyl)) [Example 209] .
Key: 0.235

Exercise: I would be grateful if you could share the reported cAMP EC50 for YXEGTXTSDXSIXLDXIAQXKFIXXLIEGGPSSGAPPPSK (Aib2, αMeF(2F)6, 4Pal10, αMeL13, Orn16, Aib20, K21(Z), D-Glu24, αMeY25, K40(Z), C-terminal NH2; Z = AEEA2-(γ-Glu)-(10-(4-carboxyphenoxy)decanoyl)) [Example 276] .
Key: 0.49
